Test system: Zika virus NS2B-NS3 protease
test_summary: Primary screen GU AMC qHTS for Zika virus inhibitors (AID 1347154);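 note: 0% = no-inhibitor control and -100% = no-enzyme control; nearly all actives have a fitted effect of over 70% in size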
condition_parameters: Zika NS2B-NS3 unlinked protease, AMC fluorogenic substrate; series mostly up to 54.1 µM
Inconclusive results are not listed. Calls of active or inactive are those of the source. Calls come from the whole dose curve; as a rule, active = well fitted inhibition curve with a large enough effect; inconclusive = small, poorly fitted or top-dose-only effect; inactive = flat fitted curve, though single readings scatter.

{"compound": "COc1ccc2c3c1O[C@H]1[C@@H](O)C=C[C@H]4[C@@H](C2)N(C)CC[C@@]341", "outcome": "inactive"}
{"compound": "CCc1cc(OC)c(C[C@H](C)N)cc1OC", "outcome": "inactive"}
{"compound": "ClC1=C(Cl)C2(Cl)C(CBr)CC1(Cl)C2(Cl)Cl (centres undefined)", "outcome": "inactive"}
{"compound": "Cc1nnc2n1-c1sc(CCC(=O)N3CCOCC3)cc1C(c1ccccc1Cl)=NC2", "outcome": "inactive"}

====

Tested on: CP247
test_summary: qHTS profiling for inhibitors of Plasmodium falciparum proliferation (AID 504749); note: nearly all actives have a fitted effect of over 60% in size
condition_parameters: P. falciparum in erythrocytes, SYBR Green DNA, 72 h; series mostly up to 28.7 µM
Method: NIH National Institute of Allergy and Infectious Diseases [NIAID] NIH Chemical Genomics Center [NCGC] […] Because mature erythrocytes lack DNA, only Plasmodium-derived DNA is detected. NCGC Assay Protocol Summary: The SYBR Green viability assay was adapted from a method described previously (Plouffe et al., 2008). […] The following morning, fluorescence intensity at 485(14) nm excitation and 535(25) nm emission wavelengths was measured on an EnVision (Perkin Elmer) plate reader. […]
Results filed as inconclusive are left out. Calls of active or inactive are those of the source. The call rests on the fitted dose curve; in most records, active means well fitted inhibition curve with a large enough effect; inconclusive means small, poorly fitted or top-dose-only effect; inactive means flat fitted curve, though single readings scatter.
Would you mind answering with one of these outcomes? active, inactive

Worked cases, answers included:
{"mol": "CN1C(=O)[C@@H](NC(=O)c2cc3ccccc3[nH]2)N=C(c2ccccc2)c2ccccc21", "answer_label": "inactive"}
{"mol": "O=C(CCCN1CCC(n2c(=O)[nH]c3ccccc32)CC1)c1ccc(F)cc1", "answer_label": "active"}
{"mol": "CCC1(CC)C(=O)NC(=O)NC1=O", "answer_label": "inactive"}
{"mol": "Cc1ccc(N=CN(C)C=Nc2ccc(C)cc2C)c(C)c1", "answer_label": "inactive"}
{"mol": "C[C@]12CC[C@H]3[C@@H](CC=C4C[C@@H](O)CC[C@@]43C)[C@@H]1CC[C@@H]2O", "answer_label": "inactive"}

Hi, do you know how OC(O)C(Cl)(Cl)Cl came out in this test?
inactive

Hi, do you know how Cc1ncc2n1-c1ccc(Cl)cc1C(c1ccccc1F)=NC2 came out in this test?
inactive

Hi, do you know how Nc1ccc(N)cc1 came out in this test?
active

Hi, do you know how C[N+](C)(C)CCOC(=O)C(O)(c1ccccc1)c1ccccc1 came out in this test?
inactive

Hi, do you know how CN(C)C(=S)SSC(=S)N(C)C came out in this test?
active

Hi, do you know how COc1ccc(C(=O)N2CCCC2=O)cc1 came out in this test?
inactive

Hi, do you know how CCCCCCCCC(=O)NCc1ccc(O)c(OC)c1 came out in this test?
inactive

====

System: Nanoluciferase (engineered Oplophorus gracilirostris luciferase)
test_summary: Primary Nanoluciferase (NLuc) qHTS assay for identification of artifact compounds. (AID 1845222);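 note: NLuc secreted into diluted conditioned medium of S16 cells; 0% = DMSO and -100% = no enzyme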
condition_parameters: NLuc-conditioned medium, Nano-Glo luminescence, 5 min; series mostly up to 54.1 µM
Calls of active or inactive are those of the source. The call rests on the fitted dose curve; in most records, active means well fitted inhibition curve with a large enough effect; inconclusive means small, poorly fitted or top-dose-only effect; inactive means flat fitted curve, though single readings scatter.
measured_quantity: outcome

Example compounds with recorded outcome:
{"compound": "C[C@]12CC[C@H](O)CC1=CC[C@@H]1[C@@H]2CC[C@]2(C)C(=O)CC[C@@H]12", "outcome": "inactive"}
{"compound": "Cc1nnc2n1-c1sc(CCc3ccc(CC(C)C)cc3)cc1C(c1ccccc1Cl)=NC2C (configuration not stated)", "outcome": "inactive"}
{"compound": "COc1ccc2c(C(=O)c3ccc(Cl)cc3)c(C)n(CC(=O)O)c2c1", "outcome": "inactive"}
{"compound": "CCCOC(=O)Cc1ccc(OCC(=O)N(CC)CC)c(OC)c1", "outcome": "inactive"}
{"compound": "CCOC(=O)c1ncn2c1CN(C)C(=O)c1c(I)cccc1-2", "outcome": "inactive"}
{"compound": "CCCC[N+]1(C)[C@@H]2CC(OC(=O)[C@H](CO)c3ccccc3)C[C@H]1[C@@H]1O[C@@H]12 (some centres not stated)", "outcome": "inactive"}

Next compound, outcome to be filled in.
Reported outcome for O=C(N[C@H]1N=C(c2ccccc2F)c2cccc3c2N(CC3)C1=O)c1cc2ccccc2[nH]1 was inactive

====

test_summary: qHTS of pediatric cancer cell lines to identify multiple opportunities for drug repurposing: Primary screen for BT-12 cells (AID 1347101); note: nearly all actives have a fitted effect of over 25% in size
condition_parameters: BT-12 viability, CellTiter-Glo luminescence, 48 h; series mostly up to 57.3 µM
Records with an inconclusive call do not appear. Active and inactive are the calls of the source. Calls follow the shape of the dose curve; as a rule, active = well fitted cell-killing curve with a large enough effect; inconclusive = small, poorly fitted or top-dose-only effect; inactive = flat fitted curve, though single readings scatter.
Would you mind answering with one of these outcomes? yes (1) = active, no (0) = inactive

{"compound": "Cc1ccc([N+](=O)[O-])[c]2c1[O][Hg]2", "answer_label": "yes (1)"}
{"compound": "C[C@H](N)[C@H](O)c1ccc(O)c(O)c1", "answer_label": "no (0)"}
{"compound": "O=C(CCCCl)c1ccc(F)cc1", "answer_label": "no (0)"}

Hi, do you know how CN1C[C@@H](NS(=O)(=O)N(C)C)C[C@@H]2c3cccc4c3c(cn4C)C[C@H]21 came out in this test?
no (0)

Hi, do you know how CCOC(=O)NC(O)C(Cl)(Cl)Cl (stereo not drawn) came out in this test?
no (0)

Hi, do you know how COc1cc(CC#N)cc(OC)c1OC came out in this test?
no (0)

Hi, do you know how CCN(CC)CCOC(=O)C(C)(c1ccccc1)c1ccccc1 came out in this test?
no (0)

Hi, do you know how CN1C(=O)[C@@H](NC(=O)c2cc3ccccc3[nH]2)N=C(c2ccccc2)c2ccccc21 came out in this test?
no (0)

Hi, do you know how CC(Cc1ccc2c(c1)OCO2)NO (stereo not drawn) came out in this test?
no (0)

====

System: CP185
test_summary: qHTS profiling for inhibitors of Plasmodium falciparum proliferation (AID 504749); note: nearly all actives have a fitted effect of over 60% in size
condition_parameters: P. falciparum in erythrocytes, SYBR Green DNA, 72 h; series mostly up to 28.7 µM
Results filed as inconclusive are left out. Calls of active or inactive are those of the source. Calls follow the shape of the dose curve; as a rule, active = well fitted inhibition curve with a large enough effect; inconclusive = small, poorly fitted or top-dose-only effect; inactive = flat fitted curve, though single readings scatter.
Would you mind answering with one of these outcomes? true (1) for active, false (0) for inactive

{"molecule": "COP(=O)(OC)C(O)C(Cl)(Cl)Cl (stereo not drawn)", "answer_label": "false (0)"}
{"molecule": "COP(=S)(OC)Oc1ccc(Sc2ccc(OP(=S)(OC)OC)cc2)cc1", "answer_label": "false (0)"}
{"molecule": "NCc1cccnc1", "answer_label": "false (0)"}
{"molecule": "CCC1(c2ccccc2)CCC(=O)NC1=O (stereo not drawn)", "answer_label": "false (0)"}
{"molecule": "COc1ccc(CN2CCNCC2)c(OC)c1OC", "answer_label": "false (0)"}

Hi, do you know how CCN(Cc1ccc(Cl)nc1)/C(=C/[N+](=O)[O-])NC came out in this test?
false (0)

Hi, do you know how CNC(=O)Oc1cccc2ccccc12 came out in this test?
false (0)

Hi, do you know how Cc1ccc(N=CN(C)C=Nc2ccc(C)cc2C)c(C)c1 came out in this test?
false (0)

Hi, do you know how O=c1n(Cl)c(=O)n(Cl)c(=O)n1Cl came out in this test?
false (0)

Hi, do you know how Clc1ccc(CO/N=C(\Cn2ccnc2)c2ccc(Cl)cc2Cl)c(Cl)c1 came out in this test?
true (1)

Hi, do you know how CN1C(=O)CN=C(c2ccccc2)c2cc([N+](=O)[O-])ccc21 came out in this test?
false (0)

Hi, do you know how COC(=O)C1=CCCN(C)C1 came out in this test?
false (0)

Hi, do you know how NC(=O)CN1CCCC1=O came out in this test?
false (0)

====

test_summary: Cell Viability - LYMP2-019 (AID 973);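 note: cells exposed to compound for 24 h at 37 °C; nearly all actives have a fitted effect of over 55% in size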
condition_parameters: LYMP2-019 lymphoblastoid cell line viability; series mostly up to 92.2 µM
Records with an inconclusive call do not appear. The source made the active and inactive calls. Calls come from the whole dose curve; as a rule, active = well fitted cell-killing curve with a large enough effect; inconclusive = small, poorly fitted or top-dose-only effect; inactive = flat fitted curve, though single readings scatter.
Would you mind answering with one of these outcomes? Yes for active, No for inactive

{"mol": "Oc1ccc(Cl)cc1Sc1cc(Cl)ccc1O", "answer_label": "Yes"}

Hi, do you know how COP(=O)(OC)OC=C(Cl)Cl came out in this test?
No

Hi, do you know how CC[n+]1c(-c2ccccc2)c2cc(N)ccc2c2ccc(N)cc21 came out in this test?
Yes

Hi, do you know how CCCCCCCCCCCC[N+](C)(C)CCOc1ccccc1 came out in this test?
Yes

Hi, do you know how CN(C)C(=S)SSC(=S)N(C)C came out in this test?
Yes

Hi, do you know how O=C(CCl)c1ccc(Cl)cc1Cl came out in this test?
Yes

Hi, do you know how COC(=O)C1=C(C)NC(C)=C(C(=O)OC)C1c1ccccc1[N+](=O)[O-] came out in this test?
Yes
